EXPERIMENT SUMMARY: PSAC antagonists in infected red cells, primary screen, cell-based, P. falciparum Indochina, OD700, 1 h (AID 1154)
TEST SETTINGS: P. falciparum Indochina infected RBC osmotic lysis, called active from +8 up or from −8 down
Active and inactive are the calls of the source.
Choose one outcome from this list and give only that: class 1 (active), class 0 (inactive)

Use the examples below as a reference point.
C=CCC(OC(C)=O)[C@@H]1[C@@H](N(Cc2cc3ccccc3o2)C(=O)Cc2ccc(F)cc2)c2cc(OCCCO)ccc2N1C(=O)c1ccc2ccccc2n1 (some centres not stated)
class 0
CN(C)CCCNC(=O)[C@@H]1c2ccccc2C(=O)N(Cc2ccc(OC(F)(F)F)cc2)[C@H]1c1ccc(CO)cc1
class 0
O=C1C[C@@](C(=O)NCC(F)(F)F)(c2ccc([N+](=O)[O-])cc2)[C@@H](c2ccc(CO)cc2)N1C1CCCCC1
class 0
C=CCN1C(=O)[C@@]2(O[C@@H](CCO)[C@H]([Si](C)(C)c3ccc(OC)cc3)[C@H]2C)c2cc(N3C(=O)c4ccccc4Oc4ccccc43)ccc21
class 1
CC[C@@H]1[C@H]2C3C(=O)N(CC)C(=O)C3CC(=O)[C@H]2[C@H](c2ccc(C)cc2)N1S(=O)(=O)c1ccc(C)cc1 (some centres not stated)
class 0

Entry `NCCCCCCNC(=O)[C@@H]1C[C@@H]2C(=O)N3CCC[C@H]3C(=O)N2[C@@H]1c1ccc(O)cc1` : call = ?
class 0

Entry `CCCc1cccc(=O)o1` : call = ?
class 0
